The origin of these recorded values is the supplement of paper PMC10567573.

B1: KRT18 (parent)
chain: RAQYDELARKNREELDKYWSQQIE

Variants of: B1
Assay remarks: protein stability index of a GFP-peptide fusion (GPS, HEK-293T) (PSI 1-6); higher = more stable;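 further: lentivirally expressed fusions sorted by FACS into six bins by GFP to DsRed ratio, PSI derived from sequencing read proportions per bin multiplied by bin number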
Test settings: c terminus: a fixed tail appended
Classify on protein stability index using bin 0: < 3; bin 1: ≥ 3 and < 4; bin 2: ≥ 4

> print(dat)
   mutation  assigned.category
1      E24A              bin 0
2       R1W              bin 0
3       L7E              bin 0

Q. Could you place K17C in its proper category? Many thanks.
A. bin 1

Q. Continue with E24Y
A. bin 0

Q. Continue with K17I
A. bin 1
